These data points were gathered from the supplement of paper PMC8024199.

Test system: Ba/F3 P210-BCR-ABL1 RUNX1-/mut (mouse)
experiment description: drug sensitivity score (DSS) (DSS score); higher = more sensitive (stronger growth inhibition); extreme values may be limits of the assay
endpoint name: drug sensitivity score

# compound, result
rows = [
    ("Cc1cc(Nc2cc(N3CCN(C)CC3)nc(/C=C/c3ccccc3)n2)n[nH]1", 8.45),
    ("CO[C@H]1C(=O)[C@]2(C)[C@@H](OC)C[C@H]3OC[C@@]3(OC(C)=O)[C@H]2[C@H](OC(=O)c2ccccc2)[C@]2(O)C[C@H](OC(=O)[C@H](O)[C@@H](NC(=O)OC(C)(C)C)c3ccccc3)C(C)=C1C2(C)C", 26.2),
    ("C=CC(=O)Nc1cccc(Nc2nc(Nc3ccc(OCCOC)cc3)ncc2F)c1", 0),
    ("O=C(O)CC[C@H]1CC[C@@](c2cc(F)ccc2F)(S(=O)(=O)c2ccc(Cl)cc2)CC1", 0),
    ("CCC(C)n1ncn(-c2ccc(N3CCN(c4ccc(OCC5COC(Cn6cncn6)(c6ccc(Cl)cc6Cl)O5)cc4)CC3)cc2)c1=O (configuration not stated)", 4.6),
    ("NC(=O)Nc1cc(-c2cccc(F)c2)sc1C(=O)N[C@H]1CCCNC1", 7.8),
    ("Cn1ncc(Cl)c1-c1cc(C(=O)N[C@H](CN)Cc2cccc(F)c2)sc1Cl", 1.6),
]
